# Target system: Coagulation factor X (Homo sapiens)
# Sequence (P00742 41-179 limits assumed): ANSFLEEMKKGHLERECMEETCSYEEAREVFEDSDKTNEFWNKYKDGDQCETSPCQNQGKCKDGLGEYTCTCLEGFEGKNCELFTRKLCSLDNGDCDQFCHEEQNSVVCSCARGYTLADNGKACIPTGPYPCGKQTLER
# Sequence (P00742 235-488 limits assumed): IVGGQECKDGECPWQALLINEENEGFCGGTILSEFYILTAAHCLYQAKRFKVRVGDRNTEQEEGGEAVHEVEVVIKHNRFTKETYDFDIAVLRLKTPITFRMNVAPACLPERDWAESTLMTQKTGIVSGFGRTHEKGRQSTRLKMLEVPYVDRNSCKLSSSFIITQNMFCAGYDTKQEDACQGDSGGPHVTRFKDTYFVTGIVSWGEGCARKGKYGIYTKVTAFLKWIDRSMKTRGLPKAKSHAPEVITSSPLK
# Method description: Inhibitory constant against human Coagulation factor Xa determined in Vitro

Structure smiles | Target system | Ki
N=C(N)c1ccc(CC(=O)CN2C(=O)[C@@H](NS(=O)(=O)c3ccc4c(c3)CCO4)CCc3ccccc32)cc1 | Coagulation factor X (Homo sapiens) | > 338 nM
N=C(N)c1ccc(CC(=O)CN2CCCC[C@H](NS(=O)(=O)c3ccc4c(c3)CCO4)C2=O)cc1 | Coagulation factor X (Homo sapiens) | > 338 nM
N=C(N)c1ccc(CC(=O)CN2CCCC[C@H](NS(=O)(=O)c3ccc4c(c3)CCO4)C2=O)s1 | Coagulation factor X (Homo sapiens) | 52.7 nM
Cc1nc(N)ccc1CC(=O)CN1CCCC[C@H](NS(=O)(=O)c2ccc3c(c2)CCO3)C1=O | Coagulation factor X (Homo sapiens) | > 338 nM
COc1ccc(OC)c(S(=O)(=O)N[C@H]2CCCCN(CC(=O)Cc3ccc(C(=N)N)cc3)C2=O)c1 | Coagulation factor X (Homo sapiens) | > 338 nM
N=C(N)c1ccc(CC(=O)CN2CCCC[C@H](NS(=O)(=O)c3ccc4ccccc4c3)C2=O)cc1 | Coagulation factor X (Homo sapiens) | > 338 nM
N=C(N)N1CCC(CC(=O)[C@@H]2Cc3cccc4c3N2C(=O)[C@@H](NS(=O)(=O)c2ccc3c(c2)CCO3)CC4)CC1 | Coagulation factor X (Homo sapiens) | 49.2 nM
